FYI, the data here is from patent US11466044B2.

Entries and their MIC50 P aeruginosa AG31
tested on: P aeruginosa; experiment: MIC by broth microdilution, P aeruginosa isolates; format: cell-based, Pseudomonas aeruginosa; details: strain AG31; Table 1 (Example 2)

QUERY: Name the recorded MIC50 P aeruginosa AG31 of CC1CC(O)C2O[C@H](O[C@@H]3C(N)C[C@@H](N)C(O)[C@H]3O[C@@H]3O[C@H](CO)[C@H](O[C@H]4O[C@@H](CN)[C@@H](O)C(O)C4N)C3O)C(N)[C@@H](O)[C@@H]2O1 (stereo partly shown) [Compound 125] , assay system P aeruginosa.
RESULT: 32 µg/mL

QUERY: Name the recorded MIC50 P aeruginosa AG31 of CC1CC(O)C2O[C@H](O[C@@H]3C(N)C[C@@H](N)C(O)[C@H]3O[C@@H]3O[C@H](CO)[C@H](O[C@H]4O[C@@H](CN)[C@@H](O)C(O)C4N)C3O)C(N)[C@@H](O)[C@@H]2O1 (stereo partly shown) [Compound 109] , assay system P aeruginosa.
RESULT: >128 µg/mL

QUERY: Name the recorded MIC50 P aeruginosa AG31 of CCCC(O)C1OC(OC2C(N)CC(N)C(O)C2OC2OC(CO)C(OC3OC(CN)C(O)C(O)C3N)C2O)C(N)C(O)C1O (stereo not shown) [Compound 143] , assay system P aeruginosa.
RESULT: >64 µg/mL

QUERY: Name the recorded MIC50 P aeruginosa AG31 of NC[C@@H]1O[C@H](O[C@H]2[C@@H](O)[C@H](O[C@@H]3[C@@H](O)[C@H](N)C[C@H](N)[C@H]3O[C@H]3O[C@H](CO)[C@@H](O)[C@H](O)[C@H]3N)O[C@@H]2CO)[C@H](N)[C@@H](O)[C@@H]1O [paromomycin, reference compound] , assay system P aeruginosa.
RESULT: >128 µg/mL

###

tested on: E coli carrying specific resistance determinants; experiment: MIC by broth microdilution, E coli carrying specific resistance determinants; type: cell-based; settings: Escherichia coli, read-out: MIC E. coli AG106 AAC(2′)-Ia
Structures can show the parent of a compound that is named as a salt.
Entries and their MIC
Numeric answer only, unit µg/mL assumed.

QUERY: Supply recorded MIC for NCC1OC(OC2C(N)CC(N)C(O)C2OC2OC(CO)C(OC3OC(CN)C(O)C(O)C3N)C2O)CC(O)C1O (stereo not shown) [Compound 173, 2′-Deamino-neomycin acetate salt] here.
RESULT: 1

QUERY: Supply recorded MIC for CNC1C(OC2C(N)CC(N)C(O)C2OC2OC(CO)C(OC3OC(CN)C(O)C(O)C3N)C2O)OC(CN)C(O)C1O (stereo not shown) [Compound 171, 2′-N-Methyl-neomycin acetate salt] here.
RESULT: 0.5

---
QUERY: Supply recorded MIC for NCC1OC(OC2C(CO)OC(OC3C(O)C(N)CC(N)C3OC3OC(CN)C(O)C(O)C3O)C2O)C(N)C(O)C1O (stereo not shown) here.
RESULT: 1

###

Entries and their MIC
system: E coli wild type; test: MIC by broth microdilution, wild type E coli; assay type: cell-based; settings: Escherichia coli, AG006 wt; Table 2 (Example 1); read-out: MIC E coli AG006 wt
Where a name gives a salt, the structure may show the parent alone.
Numeric answer only, unit µg/mL assumed.

QUERY: Name the recorded MIC of NC[C@@H]1O[C@H](O[C@@H]2C(O)[C@H](O[C@@H]3C(O)[C@H](N)CC(N)[C@H]3O[C@H]3OC(CO)[C@@H](O)[C@H](O)C3N)O[C@@H]2CNC=O)C(N)C(O)[C@@H]1O (stereo partly shown) [Compound 137, acetate salt] , assay system E coli wild type.
RESULT: 1

Shift focus to the following entry.
QUERY: Name the recorded MIC of NCC1OC(OC2C(CNC=O)OC(OC3C(O)C(N)CC(N)C3OC3OC(CO)C(O)CC3N)C2O)C(N)C(O)C1O (stereo not shown) [Compound 153, 3′,5″-Dideoxy-5″-formamido-paromomycin] , assay system E coli wild type.
RESULT: 2
